Numbers sourced from patent US20240109930A1.

- target.or.system: human Gal-1 (hGal-1) (Homo sapiens, UniProt P09382, C131S/C17S/C43S/C61S/C89S)
- test.description: Competitive binding assay: biotinylated hGal-1 binding to microplate-adsorbed asialofetuin (ASF)
- details: IC50 values from several measurements given as geomean
pIC50: −log10 of the molar value.
measurement.kind: pIC50

[[record]]
molecule = "CO[C@@H]1[C@@H](n2cc(-c3ccc(F)c(F)c3F)nn2)[C@@H](O)[C@@H](CO)O[C@@H]1Cc1cn(C23COC(C2)C3)nn1"
target_or_system = "human Gal-1 (hGal-1) (Homo sapiens, UniProt P09382, C131S/C17S/C43S/C61S/C89S)"
result = 6.10

[[record]]
molecule = "CCC1(c2cn(C[C@H]3O[C@H](CO)[C@H](O)[C@H](n4cc(-c5ccc(Br)c(F)c5F)nn4)[C@H]3OC)nn2)COC1"
target_or_system = "human Gal-1 (hGal-1) (Homo sapiens, UniProt P09382, C131S/C17S/C43S/C61S/C89S)"
result = 5.65

[[record]]
molecule = "COCC1(n2cc(C[C@H]3O[C@H](CO)[C@H](O)[C@H](n4cc(-c5ccc(C)c(F)c5F)nn4)[C@H]3OC)nn2)CC1"
target_or_system = "human Gal-1 (hGal-1) (Homo sapiens, UniProt P09382, C131S/C17S/C43S/C61S/C89S)"
result = 5.29

[[record]]
molecule = "CO[C@@H]1[C@@H](n2cc(-c3ccc(Cl)c(F)c3F)nn2)[C@@H](O)[C@@H](CO)O[C@@H]1Cc1cn([C@@H]2CCOC[C@H]2F)nn1"
target_or_system = "human Gal-1 (hGal-1) (Homo sapiens, UniProt P09382, C131S/C17S/C43S/C61S/C89S)"
result = 6.02

[[record]]
molecule = "CO[C@@H]1[C@@H](n2cc(-c3ccc(Cl)c(F)c3F)nn2)[C@@H](O)[C@@H](CO)O[C@@H]1Cc1cn(C2(CO)CC(F)(F)C2)nn1"
target_or_system = "human Gal-1 (hGal-1) (Homo sapiens, UniProt P09382, C131S/C17S/C43S/C61S/C89S)"
result = 5.55

[[record]]
molecule = "CO[C@@H]1[C@@H](n2cc(-c3ccc(F)c(F)c3F)nn2)[C@@H](O)[C@@H](CO)O[C@@H]1Cc1cn(C2(CO)CC2)nn1"
target_or_system = "human Gal-1 (hGal-1) (Homo sapiens, UniProt P09382, C131S/C17S/C43S/C61S/C89S)"
result = 6.09

[[record]]
molecule = "CO[C@@H]1[C@@H](n2cc(-c3ccc(Cl)c(F)c3F)nn2)[C@@H](O)[C@@H](CO)O[C@@H]1Cc1cn(C2(C(F)F)CCOC2)nn1 (single isomer, unassigned) [Example 2.1.78.A]"
target_or_system = "human Gal-1 (hGal-1) (Homo sapiens, UniProt P09382, C131S/C17S/C43S/C61S/C89S)"
result = 6.44

[[record]]
molecule = "CO[C@@H]1[C@@H](n2cc(-c3ccc(Br)c(F)c3F)nn2)[C@@H](O)[C@@H](CO)O[C@@H]1Cc1cn(C2(CCO)COC2)nn1"
target_or_system = "human Gal-1 (hGal-1) (Homo sapiens, UniProt P09382, C131S/C17S/C43S/C61S/C89S)"
result = 5.94

[[record]]
molecule = "CO[C@@H]1[C@@H](n2cc(-c3ccc(Br)c(F)c3F)nn2)[C@@H](O)[C@@H](CO)O[C@@H]1Cc1cn(C23CC(C)(C2)C3)nn1"
target_or_system = "human Gal-1 (hGal-1) (Homo sapiens, UniProt P09382, C131S/C17S/C43S/C61S/C89S)"
result = 5.87

[[record]]
molecule = "CO[C@@H]1[C@@H](n2cc(-c3ccc(C)c(F)c3F)nn2)[C@@H](O)[C@@H](CO)O[C@@H]1Cn1cc(C2(O)CCOCC2)nn1"
target_or_system = "human Gal-1 (hGal-1) (Homo sapiens, UniProt P09382, C131S/C17S/C43S/C61S/C89S)"
result = 5.35

[[record]]
molecule = "CO[C@@H]1[C@@H](n2cc(-c3ccc(C)c(F)c3F)nn2)[C@@H](O)[C@@H](CO)O[C@@H]1Cn1cc(C2(O)CCCC2)nn1"
target_or_system = "human Gal-1 (hGal-1) (Homo sapiens, UniProt P09382, C131S/C17S/C43S/C61S/C89S)"
result = 5.24

[[record]]
molecule = "CO[C@@H]1[C@@H](n2cc(-c3ccc(Cl)c(F)c3F)nn2)[C@@H](O)[C@@H](CO)O[C@@H]1Cc1cn(C23CCOC(C)(C2)C3)nn1"
target_or_system = "human Gal-1 (hGal-1) (Homo sapiens, UniProt P09382, C131S/C17S/C43S/C61S/C89S)"
result = 5.92

